Data origin, for the record: patent US7776848B2

- TARGET_SYSTEM: 5HT uptake (serotonin reuptake), synaptosomes from hypothalamus of male rat brains (Rattus norvegicus, UniProt P31652)
- Construct: synaptosomes are freshly isolated from areas of rat brain; from tissue; host or cells: synaptosomes (P2 fraction) from hypothalamus of male rat brains
- Sequence (P31652 whole entry): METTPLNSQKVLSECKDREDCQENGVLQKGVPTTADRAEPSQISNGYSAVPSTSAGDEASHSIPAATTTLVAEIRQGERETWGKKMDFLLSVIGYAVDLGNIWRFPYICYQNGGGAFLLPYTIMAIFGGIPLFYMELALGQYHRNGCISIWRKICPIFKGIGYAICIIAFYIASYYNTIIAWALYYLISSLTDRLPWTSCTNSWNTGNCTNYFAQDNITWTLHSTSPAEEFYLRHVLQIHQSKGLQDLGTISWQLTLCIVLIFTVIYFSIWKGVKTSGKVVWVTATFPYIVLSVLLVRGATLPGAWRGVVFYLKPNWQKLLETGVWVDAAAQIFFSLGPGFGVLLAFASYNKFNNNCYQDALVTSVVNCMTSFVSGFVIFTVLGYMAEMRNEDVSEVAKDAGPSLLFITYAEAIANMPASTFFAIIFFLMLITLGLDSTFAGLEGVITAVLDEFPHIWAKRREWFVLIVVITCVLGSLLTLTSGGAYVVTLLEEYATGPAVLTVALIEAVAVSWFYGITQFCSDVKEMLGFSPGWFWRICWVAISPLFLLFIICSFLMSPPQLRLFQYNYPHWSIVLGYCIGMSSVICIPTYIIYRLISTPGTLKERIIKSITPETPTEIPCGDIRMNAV
- ASSAY: Serotonin reuptake inhibition (5HT uptake inhibition) in rat brain synaptosomes
- Type: biochemical
Structures can show the parent of a compound that is named as a salt.
// map inhibition at 10 µM to label using lower level: < 60%; middle level: ≥ 60% and < 80%; upper level: ≥ 80%

{"COMPOUND": "CN(C)CC1CC2(CCC1(O)c1cccc(F)c1)NCCc1c2[nH]c2ccccc12 (centres unmarked) [Example 3]", "LABEL_VALUE": "middle level"}
{"COMPOUND": "Cc1ccccc1C1(O)CCC2(CC1CN(C)C)OCCc1c2sc2ccccc12 (centres unmarked) [Example 11]", "LABEL_VALUE": "upper level"}
{"COMPOUND": "CSc1ccc(C2(O)CCC3(CC2CN(C)C)OCCc2c3[nH]c3ccccc23)cc1 (centres unmarked) [Example 20]", "LABEL_VALUE": "lower level"}
{"COMPOUND": "COc1ccc2[nH]c3c(c2c1)CCNC31CCC(O)(c2ccccc2)C(CN(C)C)C1 (centres unmarked) [Example 17]", "LABEL_VALUE": "lower level"}
{"COMPOUND": "CSc1ccc(C2(O)CCC3(CC2CN(C)C)OCCc2c3oc3ccccc23)cc1 (centres unmarked) [Example 30]", "LABEL_VALUE": "upper level"}
{"COMPOUND": "Cc1ccccc1C1(O)CCC2(CC1CN(C)C)NCCc1c2[nH]c2ccccc12 (centres unmarked) [Example 6]", "LABEL_VALUE": "middle level"}
{"COMPOUND": "CN(C)CC1CC2(CCC1(O)c1cccc(F)c1)OCCc1c2sc2ccccc12 (centres unmarked) [Example 10]", "LABEL_VALUE": "upper level"}
{"COMPOUND": "CN(C)CC1CC2(CCC1(O)c1ccccc1)OCCc1c2[nH]c2ccccc12 (centres unmarked) [Example 4]", "LABEL_VALUE": "upper level"}
{"COMPOUND": "COc1ccc2[nH]c3c(c2c1)CCNC31CCC(O)(c2ccc(C(F)(F)F)cc2)C(CN(C)C)C1 (centres unmarked) [Example 22]", "LABEL_VALUE": "lower level"}
{"COMPOUND": "CN(C)CC1CC2(CCC1(O)c1cccc(F)c1)OCCc1c2oc2ccccc12 (centres unmarked) [Example 8]", "LABEL_VALUE": "upper level"}
{"COMPOUND": "COc1ccc2[nH]c3c(c2c1)CCNC31CCC(O)(c2cccc(F)c2)C(CN(C)C)C1 (centres unmarked) [Example 21]", "LABEL_VALUE": "lower level"}
{"COMPOUND": "CN(C)CC1CC2(CCC1(O)c1ccccc1)NCCc1c2[nH]c2cc(F)ccc12 (centres unmarked) [Example 35]", "LABEL_VALUE": "middle level"}
{"COMPOUND": "CN(C)CC1CC2(CCC1(O)c1ccc(C(F)(F)F)cc1)NCCc1c2[nH]c2ccccc12 (centres unmarked) [Example 15]", "LABEL_VALUE": "upper level"}
{"COMPOUND": "Cc1ccccc1C1(O)CCC2(CC1CN(C)C)NCCc1c2[nH]c2cc(F)ccc12 (centres unmarked) [Example 32]", "LABEL_VALUE": "middle level"}
{"COMPOUND": "CSc1ccc(C2(O)CCC3(CC2CN(C)C)SCCc2c3[nH]c3ccccc23)cc1 (centres unmarked) [Example 23]", "LABEL_VALUE": "lower level"}
{"COMPOUND": "Cc1ccccc1C1(O)CCC2(CC1CN(C)C)SCCc1c2[nH]c2ccccc12 (centres unmarked) [Example 24]", "LABEL_VALUE": "middle level"}
{"COMPOUND": "CN(C)CC1CC2(CCC1(O)c1cccc(F)c1)NCCc1c2[nH]c2cc(F)ccc12 (centres unmarked) [Example 16]", "LABEL_VALUE": "middle level"}
{"COMPOUND": "COc1cccc(C2(O)CCC3(CC2CN(C)C)NCCc2c3[nH]c3ccccc23)c1 (centres unmarked) [Example 1, dihydrochloride]", "LABEL_VALUE": "lower level"}
{"COMPOUND": "CN(C)CC1CC2(CCC1(O)c1cccc(F)c1)OCCc1c2[nH]c2ccccc12 (centres unmarked) [Example 27, hydrochloride]", "LABEL_VALUE": "upper level"}
{"COMPOUND": "CN(C)CC1CC2(CCC1(O)c1ccc(C(F)(F)F)cc1)OCCc1c2sc2ccccc12 (centres unmarked) [Example 29]", "LABEL_VALUE": "lower level"}
{"COMPOUND": "Cc1ccccc1C1(O)CCC2(CC1CN(C)C)OCCc1c2oc2ccccc12 (centres unmarked) [Example 12]", "LABEL_VALUE": "middle level"}
{"COMPOUND": "CSc1ccc(C2(O)CCC3(CC2CN(C)C)NCCc2c3[nH]c3cc(F)ccc23)cc1 (centres unmarked) [Example 34]", "LABEL_VALUE": "middle level"}
{"COMPOUND": "CN(C)CC1CC2(CCC1(O)c1ccccc1)OCCc1c2sc2ccccc12 (centres unmarked) [Example 7]", "LABEL_VALUE": "upper level"}
{"COMPOUND": "CN(C)CC1CC2(CCC1(O)c1ccccc1)OCCc1c2oc2ccccc12 (centres unmarked) [Example 5]", "LABEL_VALUE": "upper level"}

---

Each entry below lists one item and its recorded inhibition at 10 µM value.
- TARGET_SYSTEM: NA uptake (noradrenaline reuptake), synaptosomes from hypothalamus of male rat brains (Rattus norvegicus, UniProt Q63380)
- Construct: synaptosomes are freshly isolated from areas of rat brain; from tissue; host or cells: synaptosomes (P2 fraction) from hypothalamus of male rat brains
- Sequence (Q63380 1-617): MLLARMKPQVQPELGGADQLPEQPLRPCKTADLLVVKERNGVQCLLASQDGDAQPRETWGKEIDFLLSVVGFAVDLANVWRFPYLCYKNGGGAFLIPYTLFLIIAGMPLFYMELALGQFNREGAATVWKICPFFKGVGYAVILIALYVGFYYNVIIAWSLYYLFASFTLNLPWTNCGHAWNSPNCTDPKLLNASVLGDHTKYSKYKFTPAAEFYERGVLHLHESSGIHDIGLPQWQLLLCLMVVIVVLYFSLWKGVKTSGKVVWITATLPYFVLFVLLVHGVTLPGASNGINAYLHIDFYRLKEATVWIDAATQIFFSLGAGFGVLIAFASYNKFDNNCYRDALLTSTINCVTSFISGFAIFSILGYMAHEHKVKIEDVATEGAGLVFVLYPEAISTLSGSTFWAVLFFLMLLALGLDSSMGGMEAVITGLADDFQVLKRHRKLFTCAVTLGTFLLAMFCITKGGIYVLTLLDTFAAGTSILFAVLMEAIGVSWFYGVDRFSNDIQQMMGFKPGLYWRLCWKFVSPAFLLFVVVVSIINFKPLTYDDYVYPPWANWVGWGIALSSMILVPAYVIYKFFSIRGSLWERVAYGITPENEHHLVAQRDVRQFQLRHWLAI
- ASSAY: Noradrenaline reuptake inhibition (NA uptake inhibition) in rat brain synaptosomes
- Assay type: biochemical
Counter-ions that a name gives are not always drawn.
MEASURED_PARAMETER: inhibition at 10 µM

{"COMPOUND": "Cc1ccccc1C1(O)CCC2(CC1CN(C)C)OCCc1c2sc2ccccc12 (stereo not shown)", "RESULT": "43%"}
{"COMPOUND": "CN(C)CC1CC2(CCC1(O)c1cccc(F)c1)NCCc1c2[nH]c2ccccc12 (stereo not shown)", "RESULT": "48%"}
{"COMPOUND": "Cc1ccccc1C1(O)CCC2(CC1CN(C)C)NCCc1c2[nH]c2cc(F)ccc12 (stereo not shown)", "RESULT": "38%"}
{"COMPOUND": "COc1cccc(C2(O)CCC3(CC2CN(C)C)NCCc2c3[nH]c3ccccc23)c1 (stereo not shown) [Example 1, dihydrochloride]", "RESULT": "43%"}

---

- TARGET_SYSTEM: NA uptake (noradrenaline reuptake), synaptosomes from hypothalamus of male rat brains (Rattus norvegicus, UniProt Q63380)
- Construct: synaptosomes are freshly isolated from areas of rat brain; from tissue; host or cells: synaptosomes (P2 fraction) from hypothalamus of male rat brains
- ASSAY: Noradrenaline reuptake inhibition (NA uptake inhibition) in rat brain synaptosomes
- Type: biochemical

{"MOLECULE": "CN(C)CC1CC2(CCC1(O)c1cccc(F)c1)OCCc1c2sc2ccccc12 (centres unmarked)", "inhibition at 10 µM / %": 55}
{"MOLECULE": "CSc1ccc(C2(O)CCC3(CC2CN(C)C)NCCc2c3[nH]c3cc(F)ccc23)cc1 (centres unmarked)", "inhibition at 10 µM / %": 57}
{"MOLECULE": "CSc1ccc(C2(O)CCC3(CC2CN(C)C)OCCc2c3oc3ccccc23)cc1 (centres unmarked)", "inhibition at 10 µM / %": 37}
{"MOLECULE": "CSc1ccc(C2(O)CCC3(CC2CN(C)C)OCCc2c3sc3ccccc23)cc1 (centres unmarked)", "inhibition at 10 µM / %": 60}
{"MOLECULE": "CN(C)CC1CC2(CCC1(O)c1ccc(C(F)(F)F)cc1)NCCc1c2[nH]c2ccccc12 (centres unmarked)", "inhibition at 10 µM / %": 76}
{"MOLECULE": "CN(C)CC1CC2(CCC1(O)c1ccccc1)OCCc1c2sc2ccccc12 (centres unmarked)", "inhibition at 10 µM / %": 59}
{"MOLECULE": "CN(C)CC1CC2(CCC1(O)c1ccc(C(F)(F)F)cc1)OCCc1c2sc2ccccc12 (centres unmarked)", "inhibition at 10 µM / %": 35}
{"MOLECULE": "CN(C)CC1CC2(CCC1(O)c1cccc(F)c1)OCCc1c2oc2ccccc12 (centres unmarked)", "inhibition at 10 µM / %": 66}
{"MOLECULE": "CN(C)CC1CC2(CCC1(O)c1ccc(C(F)(F)F)cc1)OCCc1c2oc2ccccc12 (centres unmarked)", "inhibition at 10 µM / %": 46}
{"MOLECULE": "Cc1ccccc1C1(O)CCC2(CC1CN(C)C)OCCc1c2oc2ccccc12 (centres unmarked)", "inhibition at 10 µM / %": 41}
{"MOLECULE": "COc1ccc2[nH]c3c(c2c1)CCOC31CCC(O)(c2ccc(SC)cc2)C(CN(C)C)C1 (centres unmarked)", "inhibition at 10 µM / %": 41}
{"MOLECULE": "Cc1ccccc1C1(O)CCC2(CC1CN(C)C)SCCc1c2[nH]c2ccccc12 (centres unmarked)", "inhibition at 10 µM / %": 42}
{"MOLECULE": "CN(C)CC1CC2(CCC1(O)c1ccccc1)OCCc1c2oc2ccccc12 (centres unmarked)", "inhibition at 10 µM / %": 51}
{"MOLECULE": "CN(C)CC1CC2(CCC1(O)c1cccc(F)c1)SCCc1c2[nH]c2ccccc12 (centres unmarked)", "inhibition at 10 µM / %": 46}
{"MOLECULE": "CN(C)CC1CC2(CCC1(O)c1ccc(C(F)(F)F)cc1)NCCc1c2[nH]c2cc(F)ccc12 (centres unmarked)", "inhibition at 10 µM / %": 68}
{"MOLECULE": "CSc1ccc(C2(O)CCC3(CC2CN(C)C)NCCc2c3[nH]c3ccccc23)cc1 (centres unmarked)", "inhibition at 10 µM / %": 40}
{"MOLECULE": "COc1ccc2[nH]c3c(c2c1)CCNC31CCC(O)(c2cccc(F)c2)C(CN(C)C)C1 (centres unmarked)", "inhibition at 10 µM / %": 44}
